system: A549; experiment: Cytotoxicity against human A549 cells after 24 hrs by MTT assay; format: functional, cell-based; settings: A549, 24 h
Measure name: IC50 (µg/mL)

>  <Compound>
Cc1ncc([N+](=O)[O-])n1CCOc1ccc(C#N)cc1

>  <Uom>
µg/mL

>  <Observed result>
79.8

$$$$
>  <Compound>
Cc1cc(OCCn2c([N+](=O)[O-])cnc2C)ccc1Cl

>  <Uom>
µg/mL

>  <Observed result>
150

$$$$
>  <Compound>
Cc1ncc([N+](=O)[O-])n1CCOC(=O)c1ccccc1 [METRONIDAZOLE BENZOATE]

>  <Uom>
µg/mL

>  <Observed result>
281

$$$$
>  <Compound>
Cc1ncc([N+](=O)[O-])n1CCOC(=O)c1ccco1

>  <Uom>
µg/mL

>  <Observed result>
167

$$$$
>  <Compound>
Cc1ncc([N+](=O)[O-])n1CCOC(=O)c1ccc(Br)cc1

>  <Uom>
µg/mL

>  <Observed result>
194

$$$$
>  <Compound>
Cc1ncc([N+](=O)[O-])n1CCOc1ccccc1[N+](=O)[O-]

>  <Uom>
µg/mL

>  <Observed result>
573

$$$$
>  <Compound>
Cc1ccc(S(=O)(=O)OCCn2c([N+](=O)[O-])cnc2C)cc1

>  <Uom>
µg/mL

>  <Observed result>
196

$$$$
>  <Compound>
Cc1nccn1CCn1c([N+](=O)[O-])cnc1C

>  <Uom>
µg/mL

>  <Observed result>
195

$$$$
>  <Compound>
CN(Cc1cnc2nc(N)nc(N)c2n1)c1ccc(C(=O)N[C@@H](CCC(=O)O)C(=O)O)cc1 [METHOTREXATE]

>  <Uom>
µg/mL

>  <Observed result>
39.3

$$$$
>  <Compound>
Cc1ncc([N+](=O)[O-])n1CCOc1ccc2ccccc2c1

>  <Uom>
µg/mL

>  <Observed result>
96.1

$$$$

----------
The compounds listed here are annotated with their IC50.
tested on: MCF7; assay: Cytotoxicity against human MCF7 cells after 24 hrs by MTT assay; type: functional, cell-based; settings: MCF7, 24 h

>  <Compound>
Cc1cc(OCCn2c([N+](=O)[O-])cnc2C)ccc1F

>  <IC50, µg/mL>
116

$$$$
>  <Compound>
CN(Cc1cnc2nc(N)nc(N)c2n1)c1ccc(C(=O)N[C@@H](CCC(=O)O)C(=O)O)cc1 [METHOTREXATE]

>  <IC50, µg/mL>
31.5

$$$$
>  <Compound>
Cc1ncc([N+](=O)[O-])n1CCOC(=O)c1ccccc1F

>  <IC50, µg/mL>
262

$$$$
>  <Compound>
Cc1nccn1CCn1c([N+](=O)[O-])cnc1C

>  <IC50, µg/mL>
157

$$$$
>  <Compound>
Cc1ncc([N+](=O)[O-])n1CCOc1ccc(F)c(Cl)c1

>  <IC50, µg/mL>
110

$$$$
>  <Compound>
Cc1ncc([N+](=O)[O-])n1CCOc1ccc(C#N)cc1

>  <IC50, µg/mL>
83.2

$$$$
>  <Compound>
Cc1ncc([N+](=O)[O-])n1CCCl

>  <IC50, µg/mL>
480

$$$$
>  <Compound>
Cc1ncc([N+](=O)[O-])n1CCOc1ccc([N+](=O)[O-])cc1

>  <IC50, µg/mL>
127

$$$$
>  <Compound>
Cc1ncc([N+](=O)[O-])n1CCOc1ccc(F)cc1

>  <IC50, µg/mL>
85.8

$$$$
>  <Compound>
COc1cccc(C(=O)OCCn2c([N+](=O)[O-])cnc2C)c1

>  <IC50, µg/mL>
428

$$$$
>  <Compound>
COc1ccccc1C(=O)OCCn1c([N+](=O)[O-])cnc1C

>  <IC50, µg/mL>
447

$$$$
>  <Compound>
Cc1ncc([N+](=O)[O-])n1CCO

>  <IC50, µg/mL>
348

$$$$
>  <Compound>
Cc1ncc([N+](=O)[O-])n1CCOc1ccccc1

>  <IC50, µg/mL>
106

$$$$
>  <Compound>
Cc1ncc([N+](=O)[O-])n1CCOC(=O)c1ccc(Br)cc1

>  <IC50, µg/mL>
271

$$$$
>  <Compound>
Cc1cc(OCCn2c([N+](=O)[O-])cnc2C)ccc1Cl

>  <IC50, µg/mL>
188

$$$$
>  <Compound>
Cc1ncc([N+](=O)[O-])n1CCOc1ccc(Cl)c(Cl)c1

>  <IC50, µg/mL>
69.6

$$$$
>  <Compound>
Cc1ncc([N+](=O)[O-])n1CCOC(=O)c1ccco1

>  <IC50, µg/mL>
207

$$$$
>  <Compound>
Cc1ccc(S(=O)(=O)OCCn2c([N+](=O)[O-])cnc2C)cc1

>  <IC50, µg/mL>
160

$$$$
>  <Compound>
Cc1ncc([N+](=O)[O-])n1CCn1ccnc1

>  <IC50, µg/mL>
462

$$$$
>  <Compound>
Cc1ncc([N+](=O)[O-])n1CCOc1ccccc1[N+](=O)[O-]

>  <IC50, µg/mL>
583

$$$$
>  <Compound>
Cc1ncc([N+](=O)[O-])n1CCOc1ccccc1Cl

>  <IC50, µg/mL>
378

$$$$
>  <Compound>
Cc1ncc([N+](=O)[O-])n1CCOC(=O)c1ccccc1Cl

>  <IC50, µg/mL>
380

$$$$
>  <Compound>
Cc1ccc(C(=O)OCCn2c([N+](=O)[O-])cnc2C)cc1

>  <IC50, µg/mL>
256

$$$$
>  <Compound>
Cc1ncc([N+](=O)[O-])n1CCn1nnc2ccccc21

>  <IC50, µg/mL>
384

$$$$
>  <Compound>
Cc1ncc([N+](=O)[O-])n1CCOc1ccc2ccccc2c1

>  <IC50, µg/mL>
64.9

$$$$
>  <Compound>
Cc1ncc([N+](=O)[O-])n1CCOc1cccc([N+](=O)[O-])c1

>  <IC50, µg/mL>
71.7

$$$$
>  <Compound>
Cc1ncc([N+](=O)[O-])n1CCOC(=O)c1ccccc1 [METRONIDAZOLE BENZOATE]

>  <IC50, µg/mL>
245

$$$$
>  <Compound>
Cc1ncc([N+](=O)[O-])n1CCn1cnc2ccccc21

>  <IC50, µg/mL>
103

$$$$
